# Target: NV 3CLpro (codon-optimized, full-length, N-terminal 6 His, recombinant) (Norovirus)
# Sequence (Q83883 1101-1281): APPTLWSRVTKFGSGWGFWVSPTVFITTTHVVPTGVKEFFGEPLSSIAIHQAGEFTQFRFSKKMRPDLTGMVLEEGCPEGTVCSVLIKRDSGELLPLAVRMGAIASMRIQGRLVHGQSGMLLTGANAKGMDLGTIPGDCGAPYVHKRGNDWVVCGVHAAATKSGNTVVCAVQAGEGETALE
# Assay name: biochemical
# Design: species or system norovirus strain Norwalk

Compound	IC50 (nM)
CCOC(=O)/C=C/[C@H](C[C@@H]1CCNC1=O)NC(=O)[C@@H](CC(=O)[C@@H](NC(=O)c1cc(C)on1)C(C)C)Cc1ccc(F)cc1 [Rupintrivir, reference compound]	830
CC(C)C[C@H](NC(=O)OCc1ccccc1)C(=O)N[C@@H](CC1CCNC1=O)C(O)S(=O)(=O)O (some centres unmarked) [GC376]	490

---

# Target: HRV 3Cpro (recombinant, purchased from EMD chemicals) (Human rhinovirus 14, UniProt P03303)
# Sequence (P03303 1538-1719): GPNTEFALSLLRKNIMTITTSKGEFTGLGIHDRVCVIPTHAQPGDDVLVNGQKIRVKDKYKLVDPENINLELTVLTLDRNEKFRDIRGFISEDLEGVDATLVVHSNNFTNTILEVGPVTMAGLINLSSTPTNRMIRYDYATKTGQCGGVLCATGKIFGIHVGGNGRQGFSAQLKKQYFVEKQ
# Assay name: biochemical

Compound	Unit annotation	IC50
CCOC(=O)/C=C/[C@H](C[C@@H]1CCNC1=O)NC(=O)[C@@H](CC(=O)[C@@H](NC(=O)c1cc(C)on1)C(C)C)Cc1ccc(F)cc1 [Rupintrivir, reference compound]	nM	340

Origin of measurements: patent US9474759B2
